These data points were gathered from ChEMBL document CHEMBL5537115.

System: Bacillus subtilis
Test: Antibacterial activity against penicillin-susceptible Bacillus subtilis ATCC9372 assessed as bacterial growth inhibition incubated for 20 hrs by CLSI based broth microdilution method
Format: functional
# MIC per entry
Lab book: enter the figure in µg/mL, no units written.

1) Cc1ccc(/C=C/c2cc(-c3ccccc3)c[n+](C)c2-c2ccccc2)cc1.[I-]; 2
2) C[n+]1cc(-c2ccccc2)c(/C=C/c2ccc(C(C)(C)C)cc2)cc1-c1ccc(C(C)(C)C)cc1.[I-]; 0.125

// query Form field: reported MIC of CN(C)[C@@H]1C(O)=C(C(N)=O)C(=O)[C@@]2(O)C(O)=C3C(=O)c4c(O)cccc4[C@@](C)(O)[C@H]3C[C@@H]12 [TETRACYCLINE]
// result 0.5

// query Can you share its MIC? I mean this compound: C[n+]1cc(-c2ccccc2)c(/C=C/c2ccc(N3CCCC3)cc2)cc1-c1ccc2ccccc2c1.[I-]
// result 1

// query Given the entry CCCCCOc1ccc(/C=C/c2cc(-c3ccccc3)c[n+](C)c2-c2ccccc2)cc1.[I-] , report its measured MIC.
// result 0.5

// query If you can, please state the reported MIC value of Cc1ccccc1-c1c[n+](C)c(-c2ccc(C(C)(C)C)cc2)cc1/C=C/c1ccc(O)cc1.[I-] .
// result 0.5

// query Look up MIC for this compound: C[n+]1cc(-c2ccccc2)cc(/C=C/c2ccc(Br)cc2)c1-c1ccccc1.[I-]
// result 2

---

Tested on: Staphylococcus aureus
Assay: Antibacterial activity against methicillin-resistant Staphylococcus aureus ATCC43300 assessed as bacterial growth inhibition incubated for 20 hrs by CLSI based broth microdilution method
Assay type: functional
Overview of recorded log10 MIC for various compounds
Transform log10 | Measure MIC | Unit µg/mL

Study these solved cases before continuing.
1. CC(C)c1ccc(/C=C/c2cc(-c3ccc(C(C)(C)C)cc3)[n+](C)cc2-c2ccccc2)cc1.[I-]; -0.60
2. CCc1ccc(/C=C/c2cc(-c3ccccc3)c[n+](C)c2-c2ccccc2)cc1.[I-]; 0.90

// query Param item = C=CC1=C(C(=O)O)N2C(=O)[C@@H](NC(=O)/C(=N\OCC(=O)O)c3csc(N)n3)[C@H]2SC1 ; retrieve measured log10 MIC.
// result 0.60

// query Look up log10 MIC: C[n+]1cc(-c2ccccc2)cc(/C=C/c2ccc(Br)cc2)c1-c1ccccc1.[I-]
// result 0.60

// query Dear colleague, I am looking for the recorded log10 MIC of the following compound: C[n+]1cc(-c2ccccc2)cc(/C=C/c2ccc(C(F)(F)F)cc2)c1-c1ccccc1.[I-]
// result 0.60

// query For the compound Cc1ccccc1-c1c[n+](C)c(-c2ccc(C(C)(C)C)cc2)cc1/C=C/c1ccc(O)cc1.[I-] , what log10 MIC is on record?
// result -0.90

// query Fill blank: measured log10 MIC of the compound C[n+]1cc(-c2ccccc2)c(/C=C/c2ccc(F)cc2)cc1-c1ccccc1.[I-] is ____.
// result 0.00

// query State the recorded log10 MIC for this entry: C[n+]1cc(-c2ccccc2)c(/C=C/c2ccc(N3CCCC3)cc2)cc1-c1ccc(C(C)(C)C)cc1.[I-]
// result -0.30

// query Would you kindly share the measured log10 MIC for COc1ccc(/C=C/c2cc(-c3ccccc3)c[n+](C)c2-c2ccccc2)cc1.[I-] ?
// result 1.20
